test: Terminal half life in Sprague-Dawley rat at 1 mg/kg, iv by ESI-LC/MS/MS analysis; type: ADME, organism-based; details: in vivo, read-out: beta t1/2 (converted)
ASSAY READOUT: half-life (h)
Give just the number in h; leave the unit off.

[Q] What does the data say about its half-life? Entry: Cc1nc2c(-c3nnc[nH]3)cc(-c3ccnc(N)c3F)cc2n1-c1ccnc2c(F)ccc(F)c12
[A] 9.55

====

test: MRT in rhesus monkey at 1 mg/kg, iv by ESI-LC/MS/MS analysis; type: ADME, organism-based, Macaca mulatta; conditions: in vivo
ASSAY READOUT: MRT (h)
Give just the number in h; leave the unit off.

[Q] What does the data say about its MRT? Entry: Cc1nc2c(-c3nnc[nH]3)cc(-c3ccnc(N)c3F)cc2n1-c1ccnc2c(F)ccc(F)c12
[A] 6.2

====

assay: MRT in cynomolgus monkey at 1 mg/kg, iv by ESI-LC/MS/MS analysis; assay type: ADME, organism-based, Macaca fascicularis; conditions: in vivo
ASSAY READOUT: MRT (h)
Give just the number in h; leave the unit off.

[Q] What does the data say about its MRT? Entry: Cc1nc2c(-c3nnc[nH]3)cc(-c3ccnc(N)c3F)cc2n1-c1ccnc2c(F)ccc(F)c12
[A] 4.3

====

assay: Clearance in Beagle dog at 1 mg/kg, iv by ESI-LC/MS/MS analysis; type: ADME, organism-based, Canis lupus familiaris; settings: in vivo
ASSAY READOUT: clearance

[Q] What does the data say about its clearance? Entry: Cc1nc2c(-c3nnc[nH]3)cc(-c3ccnc(N)c3F)cc2n1-c1ccnc2c(F)ccc(F)c12
[A] 3.67 mL/min/kg

====

assay: MRT in Sprague-Dawley rat at 1 mg/kg, iv by ESI-LC/MS/MS analysis; format: ADME, organism-based; conditions: in vivo
ASSAY READOUT: MRT

[Q] What does the data say about its MRT? Entry: Cc1nc2c(-c3nnc[nH]3)cc(-c3ccnc(N)c3F)cc2n1-c1ccnc2c(F)ccc(F)c12
[A] 3.87 h

====

target: PI3K p110 beta/p85 alpha (Homo sapiens); assay: Inhibition of full length human His-tagged p110beta/p85alpha using PIP2 as substrate after 30 mins by TR-FRET assay
Sequence (P27986 whole entry): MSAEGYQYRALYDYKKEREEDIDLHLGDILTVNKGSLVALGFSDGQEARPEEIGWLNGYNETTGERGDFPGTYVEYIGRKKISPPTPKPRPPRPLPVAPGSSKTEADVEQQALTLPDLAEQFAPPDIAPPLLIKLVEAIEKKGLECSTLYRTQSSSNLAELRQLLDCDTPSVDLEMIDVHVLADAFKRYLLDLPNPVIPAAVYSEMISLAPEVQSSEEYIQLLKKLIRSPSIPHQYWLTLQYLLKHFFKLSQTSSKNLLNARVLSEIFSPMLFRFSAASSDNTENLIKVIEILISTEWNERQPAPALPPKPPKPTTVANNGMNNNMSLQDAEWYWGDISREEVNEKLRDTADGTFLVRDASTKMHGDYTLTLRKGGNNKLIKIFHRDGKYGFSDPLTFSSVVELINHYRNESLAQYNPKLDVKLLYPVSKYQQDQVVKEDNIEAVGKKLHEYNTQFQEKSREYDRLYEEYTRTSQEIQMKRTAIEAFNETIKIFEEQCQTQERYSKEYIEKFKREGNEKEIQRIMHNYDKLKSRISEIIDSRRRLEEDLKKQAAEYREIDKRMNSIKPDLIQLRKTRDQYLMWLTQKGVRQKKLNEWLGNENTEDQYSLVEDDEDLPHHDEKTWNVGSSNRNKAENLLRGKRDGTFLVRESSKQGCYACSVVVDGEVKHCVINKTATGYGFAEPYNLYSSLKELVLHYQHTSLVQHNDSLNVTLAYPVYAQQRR
Sequence (P42338 whole entry): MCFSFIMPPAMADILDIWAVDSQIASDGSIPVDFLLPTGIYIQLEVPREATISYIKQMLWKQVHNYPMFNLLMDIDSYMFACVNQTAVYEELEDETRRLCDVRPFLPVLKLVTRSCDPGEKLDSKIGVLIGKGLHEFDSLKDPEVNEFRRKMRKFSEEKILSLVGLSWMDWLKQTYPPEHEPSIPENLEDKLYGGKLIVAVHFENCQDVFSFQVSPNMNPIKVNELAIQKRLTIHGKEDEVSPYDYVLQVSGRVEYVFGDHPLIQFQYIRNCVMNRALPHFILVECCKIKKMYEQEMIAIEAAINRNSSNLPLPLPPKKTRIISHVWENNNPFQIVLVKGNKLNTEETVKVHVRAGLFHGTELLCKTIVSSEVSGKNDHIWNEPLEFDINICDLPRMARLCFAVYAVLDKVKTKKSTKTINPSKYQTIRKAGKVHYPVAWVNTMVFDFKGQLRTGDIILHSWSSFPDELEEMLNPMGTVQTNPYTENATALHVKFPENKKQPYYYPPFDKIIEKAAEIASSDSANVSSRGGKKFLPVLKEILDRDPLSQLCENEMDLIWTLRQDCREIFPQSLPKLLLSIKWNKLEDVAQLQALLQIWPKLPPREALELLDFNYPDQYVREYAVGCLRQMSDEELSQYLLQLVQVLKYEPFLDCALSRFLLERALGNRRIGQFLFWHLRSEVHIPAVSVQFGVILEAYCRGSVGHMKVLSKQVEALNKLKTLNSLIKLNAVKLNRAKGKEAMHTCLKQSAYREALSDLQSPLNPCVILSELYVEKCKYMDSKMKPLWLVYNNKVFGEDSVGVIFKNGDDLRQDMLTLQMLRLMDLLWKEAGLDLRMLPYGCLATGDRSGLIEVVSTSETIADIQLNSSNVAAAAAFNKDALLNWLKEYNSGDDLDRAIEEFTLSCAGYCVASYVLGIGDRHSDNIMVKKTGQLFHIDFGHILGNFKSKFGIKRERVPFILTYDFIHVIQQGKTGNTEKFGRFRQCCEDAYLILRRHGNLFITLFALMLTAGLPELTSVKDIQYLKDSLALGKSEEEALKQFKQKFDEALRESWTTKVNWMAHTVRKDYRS
ASSAY READOUT: IC50 (nM)
Give just the number in nM; leave the unit off.

[Q] What does the data say about its IC50? Entry: Nc1nccc(-c2cc(-c3nnc[nH]3)c3ncn(-c4ccnc5c(F)ccc(F)c45)c3c2)c1F
[A] 11

====

test: MRT in Beagle dog at 1 mg/kg, iv by ESI-LC/MS/MS analysis; assay type: ADME, organism-based, Canis lupus familiaris; conditions: in vivo
ASSAY READOUT: MRT (h)
Give just the number in h; leave the unit off.

[Q] What does the data say about its MRT? Entry: Cc1nc2c(-c3nnc[nH]3)cc(-c3ccnc(N)c3F)cc2n1-c1ccnc2c(F)ccc(F)c12
[A] 4.04

====

assay: Clearance in Sprague-Dawley rat at 1 mg/kg, iv by ESI-LC/MS/MS analysis; type: ADME, organism-based; conditions: in vivo
ASSAY READOUT: clearance (mL/min/kg)
Give just the number in mL/min/kg; leave the unit off.

[Q] What does the data say about its clearance? Entry: Cc1nc2c(-c3nnc[nH]3)cc(-c3ccnc(N)c3F)cc2n1-c1ccnc2c(F)ccc(F)c12
[A] 11.3

====

assay: Fraction unbound in Sprague-Dawley rat plasma; type: ADME, cell-free
ASSAY READOUT: fraction unbound

[Q] What does the data say about its fraction unbound? Entry: Cc1nc2c(-c3nnc[nH]3)cc(-c3ccnc(N)c3F)cc2n1-c1ccnc2c(F)ccc(F)c12
[A] 0.19

====

assay: Terminal half life in cynomolgus monkey at 1 mg/kg, iv by ESI-LC/MS/MS analysis; format: ADME, organism-based, Macaca fascicularis; conditions: in vivo, read-out: beta t1/2 (converted)
ASSAY READOUT: half-life (h)
Give just the number in h; leave the unit off.

[Q] What does the data say about its half-life? Entry: Cc1nc2c(-c3nnc[nH]3)cc(-c3ccnc(N)c3F)cc2n1-c1ccnc2c(F)ccc(F)c12
[A] 5.17
